The reported numbers originate from patent US20200031848A1.

- TEST_TARGET: AR transcriptional activity (Homo sapiens, UniProt P10275, T878A)
- Construct: The LNCaP eGFP cell line was stably transfected with an androgen-responsive probasin-derived promoter fused to an eGFP reporter; endogenous in cells
- Sequence (P10275 whole entry T878A, the tested form may be a part): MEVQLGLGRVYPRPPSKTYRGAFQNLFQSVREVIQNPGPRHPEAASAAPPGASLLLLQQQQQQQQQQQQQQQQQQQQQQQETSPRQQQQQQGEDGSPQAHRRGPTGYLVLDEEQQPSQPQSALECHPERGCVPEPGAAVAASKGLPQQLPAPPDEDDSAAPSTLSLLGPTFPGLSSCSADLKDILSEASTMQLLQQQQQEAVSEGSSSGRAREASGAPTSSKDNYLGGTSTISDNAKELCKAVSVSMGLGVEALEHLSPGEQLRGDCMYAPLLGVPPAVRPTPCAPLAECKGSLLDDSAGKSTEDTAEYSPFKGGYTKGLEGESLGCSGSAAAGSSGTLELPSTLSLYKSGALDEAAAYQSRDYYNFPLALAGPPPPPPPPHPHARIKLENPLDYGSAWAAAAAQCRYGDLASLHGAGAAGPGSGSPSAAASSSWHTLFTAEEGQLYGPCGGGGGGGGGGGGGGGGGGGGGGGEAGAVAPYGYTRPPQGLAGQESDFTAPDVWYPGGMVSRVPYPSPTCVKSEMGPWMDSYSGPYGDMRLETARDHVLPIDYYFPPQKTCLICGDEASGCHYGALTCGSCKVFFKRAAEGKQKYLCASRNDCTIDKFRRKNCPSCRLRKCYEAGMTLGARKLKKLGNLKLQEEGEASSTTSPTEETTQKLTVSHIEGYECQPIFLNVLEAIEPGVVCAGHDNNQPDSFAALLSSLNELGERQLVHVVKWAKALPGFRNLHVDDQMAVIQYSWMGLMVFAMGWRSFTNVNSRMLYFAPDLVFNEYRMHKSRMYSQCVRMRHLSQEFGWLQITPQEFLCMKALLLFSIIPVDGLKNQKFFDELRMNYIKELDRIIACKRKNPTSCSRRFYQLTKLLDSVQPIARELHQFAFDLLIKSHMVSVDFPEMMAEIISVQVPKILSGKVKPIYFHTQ
- ASSAY_METHOD_TEXT: eGFP cellular AR transcription assay
- STUDY_CONDITIONS: LNCaP eGFP cell line
pIC50: −log10 of the molar value.
Values of pIC50 greater than or equal to 6 map to Y; values below map to N.

>>> discrete_label("CSc1nc(Br)cn1-c1csc(N2[C@@H]3CC[C@H]2COC3)n1")
"Y"
>>> discrete_label("Clc1ncn(-c2csc(N3C[C@H]4CC[C@@H](C3)O4)n2)c1Cl")
"Y"
>>> discrete_label("Brc1cn(-c2csc(N3CCOC(Cc4ccccc4)C3)n2)c(Br)n1 (stereo not drawn)")
"N"
>>> discrete_label("Brc1ncn(-c2csc(N3[C@@H]4CCC[C@H]3COC4)n2)c1Br")
"Y"
>>> discrete_label("CSc1nc(Br)cn1-c1csc(N2CCOCC2)n1")
"Y"
>>> discrete_label("Brc1cn(-c2csc(N3CCOC4CCCCC43)n2)c(Br)n1 (stereo not drawn)")
"N"
>>> discrete_label("Brc1cn(-c2csc(N3CCOC(c4cccs4)C3)n2)c(Br)n1 (stereo not drawn)")
"Y"

---

pIC50 values, listed per item
- TEST_TARGET: AR transcriptional activity (Homo sapiens, UniProt P10275, T878A)
- Construct: The LNCaP eGFP cell line was stably transfected with an androgen-responsive probasin-derived promoter fused to an eGFP reporter; endogenous in cells
- ASSAY_METHOD_TEXT: eGFP cellular AR transcription assay
- STUDY_CONDITIONS: LNCaP eGFP cell line
pIC50: −log10 of the molar value.
READOUT_TYPE: pIC50

>>> reported("Clc1c(Br)ncn1-c1csc(N2[C@@H]3CC[C@H]2COC3)n1")
6.14
>>> reported("Brc1cn(-c2csc(N3CCOCC3)n2)c(Br)n1")
6.38
>>> reported("Brc1cn(-c2csc(N3CCOC4(CCOCC4)C3)n2)c(Br)n1")
5.51
>>> reported("FC(F)(F)C1CN(c2nc(-n3cc(Br)nc3Br)cs2)CCO1 (stereo not shown) [Example 25]")
5.77
>>> reported("Brc1ncn(-c2csc(N3[C@@H]4CC[C@H]3COC4)n2)c1Br")
6.34
>>> reported("N#Cc1nc(Br)cn1-c1csc(N2CCOCC2)n1")
5.80
>>> reported("Cc1ncn(-c2csc(N3CCOCC3)n2)c1C")
5.44
>>> reported("Brc1ncn(-c2csc(N3C[C@H]4CC[C@@H](C3)O4)n2)c1Br")
6.74
>>> reported("Clc1ncn(-c2csc(N3[C@@H]4CC[C@H]3COC4)n2)c1Cl")
6.49
>>> reported("FC(F)(F)C1CN(c2nc(-n3cc(Br)nc3Br)cs2)CCO1 (stereo not shown) [Example 38]")
5.71
>>> reported("Clc1ncn(-c2csc(N3C[C@H]4CC[C@@H](C3)O4)n2)c1Br")
6.52
>>> reported("OCc1nc(Br)c(Br)n1-c1csc(N2[C@@H]3CC[C@H]2COC3)n1")
5.52
>>> reported("COc1nc(Br)cn1-c1csc(N2[C@@H]3CC[C@H]2COC3)n1")
6.57
>>> reported("OCc1nc(Br)c(Br)n1-c1csc(N2CCOCC2)n1")
5.19
>>> reported("Brc1cn(-c2csc(N3[C@@H]4CCC[C@H]3COC4)n2)c(Br)n1")
6.87
>>> reported("Clc1c(Br)ncn1-c1csc(N2[C@@H]3CCC[C@H]2COC3)n1")
6.13
>>> reported("Brc1ncn(-c2csc(N3CCOCC3)n2)c1Br")
5.91
>>> reported("CC1CN(c2nc(-n3cc(Br)nc3Br)cs2)C(C)CO1 (stereo not shown)")
6.72
>>> reported("CC1CN(c2nc(-n3cc(Br)nc3Br)cs2)CCO1 (stereo not shown)")
6.40
